Could you please report measured SI HCMV for the items listed next?
# System: human cytomegalovirus (HCMV)
# assay: Anti-HCMV (anti-human cytomegalovirus) cytopathogenicity test
# Format: cell-based
# condition_parameters: selectivity index = CC50 (NHDF)/EC50 (HCMV)
Give bare numbers.

Below are some compounds; for each one, tell me its SI HCMV.
1. CC1(C)CC(c2ccccc2NC(=O)Nc2ccc(F)cc2F)=NNC1=O
2. CC1(C)CC(=O)NN=C1c1cccc(NC(=O)Nc2cccc(Br)c2)c1

Response:
1: 21; 2: 185

Below are some compounds; for each one, tell me its SI HCMV.
1. CC1(C)CC(=O)NN=C1c1cccc(NC(=O)Nc2ccc(F)c(Cl)c2)c1
2. CC1(C)CC(=O)NN=C1c1cccc(NC(=O)Nc2ccc(F)cc2F)c1

Response:
1: 329; 2: 130

====

Could you please report measured melting point for the items listed next?
Please report the result as a number followed by the unit.

Recorded results for 3 molecules are shown here.
INSERT INTO measurements (compound, reported_endpoint, value_observed) VALUES
  ('CC1(C)CC(=O)NN=C1c1cccc(NC(=O)Nc2cccc(Br)c2)c1', 'melting point', '207 °C'),
  ('CC1(C)CC(=O)NN=C1c1cccc(NC(=O)Nc2ccc(F)cc2F)c1', 'melting point', '213 °C'),
  ('CC1(C)CC(c2cccc(NC(=O)Nc3ccc(F)c(F)c3)c2)=NNC1=O', 'melting point', '200 °C');

Next molecule, please.
Prompt: Fill in melting point for record `Cc1cc(Cl)ccc1NC(=O)Nc1cccc(C2=NNC(=O)CC2(C)C)c1`
Response: 232 °C

====

Could you please report measured CC50 at 6 days for the items listed next?
# assay: Cytotoxicity on NHDF cells in the anti-HCMV cytopathogenicity test
# Format: cell-based
# condition_parameters: human, NHDF cells (normal human dermal fibroblasts), 6 days incubation, visual evaluation
Numbers only, in µM.

Recorded results for 3 molecules are shown here.
INSERT INTO assay_data (compound, reported_endpoint, value_observed) VALUES
  ('CC1(C)CC(c2ccccc2NC(=O)Nc2ccc(F)cc2F)=NNC1=O', 'CC50 at 6 days', 125),
  ('CC1(C)CC(=O)NN=C1c1cccc(NC(=O)Nc2ccc(F)c(Cl)c2)c1', 'CC50 at 6 days', 23),
  ('CC1(C)CC(=O)NN=C1c1cccc(NC(=O)Nc2ccc(F)cc2F)c1', 'CC50 at 6 days', 125);

Next molecule, please.
Prompt: Fill in CC50 at 6 days for record `CC1(C)CC(=O)NN=C1c1cccc(NC(=O)Nc2cccc(Br)c2)c1`
Response: 24
